# EXPERIMENTAL SYSTEM: Substance-P receptor (Homo sapiens)
# ASSAY COMMENT: Displacement of [125I]-BH-SP from NK1R (unknown origin) transfected in CHO cells at 10 uM by gamma counting analysis
# Type: cell-based
Residues, ends and D or L forms follow the SMILES beside them.
METRIC NAME: inhibition

CSCC[C@H](NC(=O)[C@H](CC(C)C)NC(=O)CNC(=O)[C@H](Cc1ccccc1)N(C)C(=O)[C@H](Cc1ccccc1)NC(=O)[C@H](CC(N)=O)NC(=O)[C@H](CC(=O)O)NC(=O)[C@H](Cc1cnc[nH]1)NC(=O)[C@H](CCSC)NC(=O)[C@@H](N)CC(=O)O)C(N)=O (HELM PEPTIDE1{D.M.H.D.N.F.[meF].G.L.M.[am]}$$$$V2.0); < 10%

Exercise: Return inhibition measured with Substance-P receptor (Homo sapiens) given this compound: CSCC[C@H](NC(=O)[C@H](CC(C)C)NC(=O)CNC(=O)[C@H](Cc1ccccc1)N(C)C(=O)[C@H](Cc1ccccc1)NC(=O)[C@H](CC(=O)O)NC(=O)[C@H](CC(=O)O)NC(=O)[C@H](Cc1cnc[nH]1)NC(=O)[C@H](CCSC)NC(=O)[C@@H](N)CC(=O)O)C(N)=O (HELM PEPTIDE1{D.M.H.D.D.F.[meF].G.L.M.[am]}$$$$V2.0)
Solution: < 10%

----------
# EXPERIMENTAL SYSTEM: Substance-K receptor (Homo sapiens) (UniProt P21452)
# Sequence (P21452 whole entry): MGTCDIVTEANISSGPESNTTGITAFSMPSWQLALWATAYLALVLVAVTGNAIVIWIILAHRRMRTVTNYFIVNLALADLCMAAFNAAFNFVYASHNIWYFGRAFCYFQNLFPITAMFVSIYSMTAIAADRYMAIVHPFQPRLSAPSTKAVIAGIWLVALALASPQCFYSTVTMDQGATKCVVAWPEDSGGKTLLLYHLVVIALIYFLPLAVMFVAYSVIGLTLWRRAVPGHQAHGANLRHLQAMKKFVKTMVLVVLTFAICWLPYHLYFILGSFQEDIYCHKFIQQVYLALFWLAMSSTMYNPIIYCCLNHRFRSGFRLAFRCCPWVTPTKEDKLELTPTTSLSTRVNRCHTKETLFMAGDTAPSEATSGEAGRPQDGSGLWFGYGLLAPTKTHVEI
# ASSAY COMMENT: Displacement of [125I]-NKA from NK2R (unknown origin) transfected in CHO cells at 10 uM by gamma counting analysis
# Format: cell-based
Residues, ends and D or L forms follow the SMILES beside them.
METRIC NAME: inhibition (%)
Respond numerically; units are % and should not be typed.

Record excerpt, results attached:
CSCC[C@H](NC(=O)[C@H](CC(C)C)NC(=O)CNC(=O)[C@H](Cc1ccccc1)N(C)C(=O)[C@H](Cc1ccccc1)NC(=O)[C@H](CCCNC(=N)N)NC(=O)[C@H](CC(=O)O)NC(=O)[C@H](Cc1cnc[nH]1)NC(=O)[C@H](CCSC)NC(=O)[C@@H](N)CC(=O)O)C(N)=O (HELM PEPTIDE1{D.M.H.D.R.F.[meF].G.L.M.[am]}$$$$V2.0); 62
CSCC[C@H](NC(=O)[C@H](CC(C)C)NC(=O)CNC(=O)[C@H](Cc1ccccc1)N(C)C(=O)[C@H](Cc1ccccc1)NC(=O)[C@@H](NC(=O)[C@H](CC(=O)O)NC(=O)[C@H](Cc1cnc[nH]1)NC(=O)[C@H](CCSC)NC(=O)[C@@H](N)CC(=O)O)C(C)C)C(N)=O (HELM PEPTIDE1{D.M.H.D.V.F.[meF].G.L.M.[am]}$$$$V2.0); 29
CSCC[C@H](NC(=O)[C@H](CC(C)C)NC(=O)CNC(=O)[C@H](Cc1ccccc1)N(C)C(=O)[C@H](Cc1ccccc1)NC(=O)[C@H](CC(C)C)NC(=O)[C@H](CC(=O)O)NC(=O)[C@H](Cc1cnc[nH]1)NC(=O)[C@H](CCSC)NC(=O)[C@@H](N)CC(=O)O)C(N)=O (HELM PEPTIDE1{D.M.H.D.L.F.[meF].G.L.M.[am]}$$$$V2.0); 29

// below: inhibition requested for another compound
Exercise: Which measured inhibition value corresponds to CSCC[C@H](NC(=O)[C@H](CC(C)C)NC(=O)CNC(=O)[C@H](Cc1ccccc1)N(C)C(=O)[C@H](Cc1ccccc1)NC(=O)[C@H](C)NC(=O)[C@H](CC(=O)O)NC(=O)[C@H](CCCCN)NC(=O)[C@H](CO)NC(=O)[C@@H]1CCCN1C(=O)[C@@H]1CCC(=O)N1)C(N)=O (HELM PEPTIDE1{[Glp].P.S.K.D.A.F.[meF].G.L.M.[am]}$$$$V2.0) ?
Solution: 26

----------
# EXPERIMENTAL SYSTEM: Substance-P receptor (Homo sapiens) (UniProt P25103)
# Sequence (P25103 whole entry): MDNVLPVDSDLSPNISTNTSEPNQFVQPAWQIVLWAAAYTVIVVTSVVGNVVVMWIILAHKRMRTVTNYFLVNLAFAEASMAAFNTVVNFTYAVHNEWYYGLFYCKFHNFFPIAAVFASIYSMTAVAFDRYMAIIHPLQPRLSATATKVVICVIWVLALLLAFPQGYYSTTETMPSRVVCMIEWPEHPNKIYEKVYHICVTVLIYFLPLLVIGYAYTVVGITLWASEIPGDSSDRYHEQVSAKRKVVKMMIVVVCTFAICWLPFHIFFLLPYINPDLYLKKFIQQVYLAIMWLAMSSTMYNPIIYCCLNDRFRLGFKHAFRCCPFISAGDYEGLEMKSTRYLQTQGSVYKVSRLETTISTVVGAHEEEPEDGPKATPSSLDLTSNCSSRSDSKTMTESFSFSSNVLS
# ASSAY COMMENT: Displacement of [125I]-BH-SP from NK1R (unknown origin) transfected in CHO cells at 10 uM by gamma counting analysis
# Assay type: cell-based
Residues, ends and D or L forms follow the SMILES beside them.
Listed next: entries and their corresponding inhibition.

CSCC[C@H](NC(=O)[C@H](CC(C)C)NC(=O)CNC(=O)[C@H](Cc1ccccc1)N(C)C(=O)[C@H](Cc1ccccc1)NC(=O)[C@H](CC(=O)O)NC(=O)[C@H](CC(=O)O)NC(=O)[C@H](CO)NC(=O)[C@H](CCCCN)NC(=O)[C@@H]1CCCN1C(=O)[C@@H](NC(=O)[C@@H](N)CC(=O)O)C(C)C)C(N)=O (HELM PEPTIDE1{D.V.P.K.S.D.D.F.[meF].G.L.M.[am]}$$$$V2.0); < 10%
CSCC[C@H](NC(=O)[C@H](CC(C)C)NC(=O)CNC(=O)[C@H](Cc1ccccc1)N(C)C(=O)[C@H](Cc1ccccc1)NC(=O)[C@H](CCC(N)=O)NC(=O)[C@H](CC(=O)O)NC(=O)[C@H](Cc1cnc[nH]1)NC(=O)[C@H](CCSC)NC(=O)[C@@H](N)CC(=O)O)C(N)=O (HELM PEPTIDE1{D.M.H.D.Q.F.[meF].G.L.M.[am]}$$$$V2.0); 24%

Please find the next molecule below.
Exercise: May I ask what inhibition has been recorded for CSCC[C@H](NC(=O)[C@H](CC(C)C)NC(=O)CNC(=O)[C@H](Cc1ccccc1)N(C)C(=O)[C@H](Cc1ccccc1)NC(=O)[C@H](C)NC(=O)[C@H](CC(=O)O)NC(=O)[C@H](Cc1cnc[nH]1)NC(=O)[C@H](CCSC)NC(=O)[C@@H](N)CC(=O)O)C(N)=O (HELM PEPTIDE1{D.M.H.D.A.F.[meF].G.L.M.[am]}$$$$V2.0) ?
Solution: < 10%

----------
# EXPERIMENTAL SYSTEM: UniProt P29371
# Sequence (P29371 whole entry): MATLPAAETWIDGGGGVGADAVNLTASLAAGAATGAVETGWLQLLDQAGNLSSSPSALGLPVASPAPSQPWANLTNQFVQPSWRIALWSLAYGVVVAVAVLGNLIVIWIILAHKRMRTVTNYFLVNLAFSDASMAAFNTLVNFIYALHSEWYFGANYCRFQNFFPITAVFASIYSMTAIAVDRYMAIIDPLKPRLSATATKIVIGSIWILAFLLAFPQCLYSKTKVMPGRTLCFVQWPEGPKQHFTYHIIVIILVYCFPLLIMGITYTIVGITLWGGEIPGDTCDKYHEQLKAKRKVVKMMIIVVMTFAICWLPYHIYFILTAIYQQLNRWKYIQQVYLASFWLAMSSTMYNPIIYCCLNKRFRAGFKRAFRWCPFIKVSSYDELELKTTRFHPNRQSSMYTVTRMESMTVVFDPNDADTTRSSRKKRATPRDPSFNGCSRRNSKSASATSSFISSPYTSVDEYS
# ASSAY COMMENT: Displacement of ([125I]-His3, MePhe7)-NKB from NK3R (unknown origin) transfected in CHO cells by gamma counting analysis
# Type: cell-based
Residues, ends and D or L forms follow the SMILES beside them.
METRIC NAME: pIC50
The scale used: pIC50 is minus the common logarithm of the concentration in molar units.

Consider the reported pIC50 for these compounds:
CSCC[C@H](NC(=O)[C@H](CC(C)C)NC(=O)CNC(=O)[C@H](Cc1ccccc1)N(C)C(=O)[C@H](Cc1ccccc1)NC(=O)[C@H](Cc1c[nH]c2ccccc12)NC(=O)[C@H](CC(=O)O)NC(=O)[C@H](Cc1cnc[nH]1)NC(=O)[C@H](CCSC)NC(=O)[C@@H](N)CC(=O)O)C(N)=O (HELM PEPTIDE1{D.M.H.D.W.F.[meF].G.L.M.[am]}$$$$V2.0); 8.74
CSCC[C@H](NC(=O)[C@H](CC(C)C)NC(=O)CNC(=O)[C@H](Cc1ccccc1)N(C)C(=O)[C@H](Cc1ccccc1)NC(=O)[C@H](CC(=O)O)NC(=O)[C@H](CC(=O)O)NC(=O)[C@@H]1CCCN1C(=O)[C@H](CCCN=C(N)N)NC(=O)[C@@H]1CCCN1C(=O)[C@@H](N)CCCCN)C(N)=O (HELM PEPTIDE1{K.P.R.P.D.D.F.[meF].G.L.M.[am]}$$$$V2.0); 7.51
CSCC[C@H](NC(=O)[C@H](CC(C)C)NC(=O)CNC(=O)[C@H](Cc1ccccc1)N(C)C(=O)[C@H](Cc1ccccc1)NC(=O)[C@H](CC(=O)O)NC(=O)[C@H](CC(=O)O)NC(=O)[C@H](CO)NC(=O)[C@H](CCCCN)NC(=O)[C@@H]1CCCN1C(=O)[C@@H](NC(=O)[C@@H](N)CC(=O)O)C(C)C)C(N)=O (HELM PEPTIDE1{D.V.P.K.S.D.D.F.[meF].G.L.M.[am]}$$$$V2.0); 7.57
CSCC[C@H](NC(=O)[C@H](CC(C)C)NC(=O)CNC(=O)[C@@H](NC(=O)[C@H](Cc1ccccc1)NC(=O)[C@H](CCC(N)=O)NC(=O)[C@H](CC(=O)O)NC(=O)[C@H](CO)NC(=O)[C@H](CCCCN)NC(=O)[C@@H]1CCCN1C(=O)[C@@H](NC(=O)[C@@H](N)CC(=O)O)C(C)C)C(C)C)C(N)=O; 7.00
CSCC[C@H](NC(=O)[C@H](CC(C)C)NC(=O)CNC(=O)[C@H](Cc1ccccc1)N(C)C(=O)[C@H](Cc1ccccc1)NC(=O)[C@@H](NC(=O)[C@H](CC(=O)O)NC(=O)[C@H](Cc1cnc[nH]1)NC(=O)[C@H](CCSC)NC(=O)[C@@H](N)CC(=O)O)C(C)C)C(N)=O (HELM PEPTIDE1{D.M.H.D.V.F.[meF].G.L.M.[am]}$$$$V2.0); 8.82

Now consider the entry below.
Exercise: Give the reported pIC50 for CSCC[C@H](NC(=O)[C@H](CC(C)C)NC(=O)CNC(=O)[C@H](Cc1ccccc1)N(C)C(=O)[C@H](Cc1ccccc1)NC(=O)[C@H](CC(N)=O)NC(=O)[C@H](CC(=O)O)NC(=O)[C@H](Cc1cnc[nH]1)NC(=O)[C@H](CCSC)NC(=O)[C@@H](N)CC(=O)O)C(N)=O (HELM PEPTIDE1{D.M.H.D.N.F.[meF].G.L.M.[am]}$$$$V2.0) (system: UniProt P29371).
Solution: 7.74
